Source: PubChem BioAssay (NCI)

System: DU-145 prostate
Assay: NCI-60 one-dose screen, 48 h (100 = growth as untreated, 0 = no growth, -100 = all killed)
Conditions: 10 µM unless noted
Procedure: Cells are grown in 96 well plates and exposed to the test compound for 48 hours. Compounds are tested at a single concentration, which is 10^-5 M for most compounds. The reported endpoint is percent growth (GI% or GIPRCNT), where numbers from 0 - 100% represent growth inhibition, and numbers from -100% - 0 represent cell death. For example, a value of 40 represents 60% growth inhibition. A value of 0 means no net growth occurred over the course of the experiment. […]
About 83,000 compounds went through this panel and 20% of them were active in at least one assay; those are over-represented in the sample as a whole.
endpoint: growth (%)
Answers are plain numbers, in %.

Please go through the list and note growth for each molecule.
1. O=S(=O)(c1cccc(NC2=Nc3cccc4cccc2c34)c1)N1CCCC1
2. CC1=CC2(C)/C=C(C)/C=C\CC(O)/C=C3/C=CC(=C4C(=O)OC2(CC1C)C4=O)OC3 (stereo unspecified)
3. Cc1cc(C)n(Nc2nc3ccccc3[nH]c2=O)c(=O)c1C#N
4. COc1ccc(C2CC(c3cccc(Nc4ccncc4)c3)=NN2c2ccccc2)cc1 (stereo unspecified)
5. COc1ccc(Cn2nc3c(c2-c2cc(OC)c(OC)c(OC)c2)-c2oncc2CC3)cc1
6. COc1ccc(C(=O)c2cc3c(N)c(C(=O)Nc4cccc5ccccc45)sc3nc2C)cc1

[90.4, -85.4, 101, 42.2, 105, 9.48]

Please go through the list and note growth for each molecule.
1. COc1ccc(Cn2nc(-c3cc(OC)c(OC)c(OC)c3)c3c2CCc2cnoc2-3)cc1OC
2. COc1cc(C(=O)/C=C/c2c(C)n([O-])c3ccc(Cl)cc3[n+]2=O)cc(OC)c1OC

1. 76.1
2. 36.3

Please go through the list and note growth for each molecule.
1. CC(=O)N1N=C(c2cccc(Nc3ccncc3)c2)CC1c1ccc2c(c1)OCO2 (stereo unspecified)
2. C=C1C(=O)O[C@H]2[C@H]1CC/C(COC(=O)CCCc1c[nH]c3ccccc13)=C\CC[C@@]1(C)O[C@@H]21
3. COc1ccc(/C(C)=N/NC(=O)CSc2nc3ccccc3c(=O)n2Cc2ccc(S(N)(=O)=O)cc2)c(OC)c1
4. COc1cc(C2CC(c3cccc(Nc4ccncc4)c3)=NN2c2ccc(Cl)cc2)cc(OC)c1OC (stereo unspecified)
5. CC(C)NC(=O)N1C(=O)CCC1NNC(=O)c1ccc([N+](=O)[O-])cc1 (stereo unspecified)
6. COc1cc2oc(-c3cccc(C(=O)Nc4ccc(Cl)cc4)c3)cc(=O)c2c(OC)c1OC
7. CC(C)(O)C1CCCN1C(=O)c1ccccc1I (stereo unspecified)

[104, 49.6, 108, -17.5, 103, 42.4, 111]

Please go through the list and note growth for each molecule.
1. COc1cc(-c2nc3sccn3c2-c2ccnc(NCCNS(=O)(=O)c3ccc(F)cc3)n2)ccc1F
2. COc1cccc2c1C(=O)c1c(O)c3c(c(O)c1C2=O)C[C@@](O)(C(=O)CO)C[C@@H]3O[C@H]1C[C@H](N)[C@@H](O)[C@H](C)O1
3. O=c1[nH]c2c(s1)CCCC2CN1CCCCC1 (stereo unspecified)
4. Cn1c2c(Cl)c(Cl)ccc2c2cc(N)[nH]c(=O)c21

19.6
-26.8
109
84.2

Please go through the list and note growth for each molecule.
1. C=C1C(=O)O[C@H]2[C@H]1CC/C(COC(=O)NCCc1c[nH]c3ccc(Cl)cc13)=C\CC[C@@]1(C)O[C@@H]21
2. CC(C)(C)OC(=O)N1CCN(c2ccc(N)cc2)C(=O)C1
3. CCn1cc(C2NC(=O)c3ccccc3N2)c2cccc(C)c21 (stereo unspecified)
4. Nc1nnc(C(=O)c2cnc3n(c2=O)CCCCC3)s1
5. CCN(CC)CCCCCCNc1cc(OC)cc2cccnc12
6. Cc1ccc(C(c2c(O)c3cc(Br)ccc3[nH]c2=O)c2c(O)c3cc(Br)ccc3[nH]c2=O)cc1
7. COc1cc(NCC(C)(O)CN(CC(C)C)CC(C)C)c2nc(C)ccc2c1 (stereo unspecified)

[-87.8, 115, 12.2, 103, 40.8, 102, 110]

----------
tested on: OVCAR-4 ovarian; experiment: NCI-60 one-dose screen, 48 h; details: 10 µM unless noted
About 83,000 compounds went through this panel and 20% of them were active in at least one assay; those are over-represented in the sample as a whole. Activity calls are given as the source filed them. The calls were made as follows: active = growth percent below 10; inactive = the rest.
In this exercise, the only acceptable responses are Y (active), N (inactive)

COc1ccc(NC(=O)c2sc3nc(C)c(C(O)c4ccc(OC)cc4)cc3c2N)cc1 (stereo not drawn) | N
COc1cc(CNC(=O)CCCCC[P+](c2ccccc2)(c2ccccc2)c2ccccc2)c(OC)c2c1OCO2 | N
FC(F)(F)Oc1cccc(-c2cc(NCCCCCCNc3cc(-c4cccc(OC(F)(F)F)c4)nc4ccc(N5CCCC5)cc34)c3cc(N4CCCC4)ccc3n2)c1 | Y
Cc1ccc2[nH]c(=O)cc(-n3nncc3COc3ccc(C=O)cc3)c2c1 | N

Call for entry CC1(C)CCCN1CCCN1c2ccccc2Sc2ccc(Cl)cc21 : N

Would you kindly repeat that for CCCCCCCCCCCCCCCC(=O)OC[C@@]1(O)C[C@@]23CC[C@@H]4C(C)(C)CCC[C@@]4(C)[C@@H]2CC[C@H]1C3 ? N

Would you kindly repeat that for C=CCn1c(SCC(=O)Nc2ccc(C(=O)/C=C/c3cc(OC)c(OC)c(OC)c3)cc2)nnc1-c1cc(-c2ccc(S(C)(=O)=O)cc2)nc2ccccc12 ? N

Would you kindly repeat that for Nc1nnc2cc(Cl)ccc2n1 ? N

Would you kindly repeat that for Cc1[nH]c(C(=O)Nc2ccccc2OCc2cccc(C(=O)NCCN)c2)c(Cl)c1Cl ? N

----------
test system: K-562 leukemia; experiment: NCI-60 one-dose screen, 48 h (100 = growth as untreated, 0 = no growth, -100 = all killed); details: 10 µM unless noted
This is part of a sample that, as a whole, favours compounds with a hit. Of some 83,000 tested, about 20% had one in any assay.
endpoint: growth (%)
Give bare numbers, in %.

See these solved cases before continuing.
c1ccc(N2N=C(c3cccc(Nc4ccncc4)c3)CC2c2ccc3c(c2)OCO3)cc1 (configuration not stated) | 4.94
C#CCn1cc(C=C2C(=O)NC(=S)NC2=O)c2cc(Cl)ccc21 | 15
Cc1cc2cc3cc(C)c(N)cc3[n+](C)c2cc1N | 9.81
S=c1[nH]cccc1-c1nnc2n1Nc1nc3ccccc3cc1CS2 | 99.5
CCNC(=O)c1[nH]cc(-c2ccc(OC)cc2)c1-c1cc(OC)cc(OC)c1 | 45.1
COc1ccc(C(=O)c2cc3c(N)c(C(=O)Nc4cccc(OC)c4)sc3nc2C)cc1 | 8.3
COc1cc2nc(Cc3ccc(C)cc3)[nH]c(=O)c2cc1OC | 94.3
O=S(=O)(NCCNc1nccc(-c2c(-c3cccc(F)c3)nc3occn23)n1)c1cccc2ccccc12 | 19

Please go through the list and note growth for each compound.
1. COc1ccc(CC(C)=C(c2ccc(OCCN(C)C)cc2)c2ccc(OCCN(C)C)cc2)cc1
2. O=C1c2cccnc2C(=O)c2nc3cc(N4CCN(C5CC5)CC4)ccc3nc21
3. Fc1ccc(C2CC(c3cccc(Nc4ccncc4)c3)=NN2c2ccccc2)cc1 (configuration not stated)

-28.1
0.866
0.671

Please go through the list and note growth for each compound.
1. OC1(c2ccc(Cl)c(C(F)(F)F)c2)CCN(CCCC(c2ccc(F)cc2)c2ccc(F)cc2)CC1
2. COc1ccc(-c2c(-c3ccccc3)noc2N)cc1OC
3. C=C1C(=O)O[C@H]2[C@H]1CC/C(COC(=O)NCCc1c[nH]c3ccc(Cl)cc13)=C\CC[C@@]1(C)O[C@@H]21
4. O=S(=O)(NCCCNc1nccc(-c2c(-c3cccc(O)c3)nc3occn23)n1)c1ccc(F)cc1

1: -20.2; 2: 95; 3: -13.2; 4: 68.7

Please go through the list and note growth for each compound.
1. NNC(=O)/C(=C\c1ccc([N+](=O)[O-])cc1)CC(=O)c1ccc(Cl)c(Cl)c1
2. COc1ccccc1-c1c(-c2ccc(Cl)cc2)c2cc3c(cc2[nH]c1=O)OCCO3
3. COc1ccc(C2CC(c3cccc(Nc4ccncc4)c3)=NN2c2ccccc2)cc1 (configuration not stated)
4. O=C(CNCCO)Nc1ccc2ncnc(Nc3ccc(OCc4cccc(F)c4)c(Cl)c3)c2c1
5. O=C(Nc1ccc2ncnc(Nc3ccc(Oc4cccc(F)c4)c(Cl)c3)c2c1)c1ccc(CNCCO)cc1
6. COc1cc(OC)c(/C=C/C(=O)c2ccc(Nc3ncnc4ccccc34)cc2)c(OC)c1
7. COc1ccc(C(O)c2cc3c(N)c(C(=O)Nc4ccccc4)sc3nc2C)cc1 (configuration not stated)

88.8
44.3
1.17
27.8
-8.41
4.41
3.59
